test system: SN12C renal; experiment: NCI tumour cell line growth inhibition, 48 h
ATTRIBUTE_MEASURED: TGI

Worked cases, TGI given:
COc1ccc(C2COc3c(ccc(OC)c3OC)C2=O)cc1OC (stereo unspecified) ... > 100 µM
CN(C)c1cccc(-c2cc(=S)c3cc4c(cc3[nH]2)OCO4)c1 ... > 100 µM
CCOC(=O)c1noc2c1CCc1c-2cn(Cc2ccc(OC)cc2)c1-c1cc(OC)c(OC)c(OC)c1 ... > 100 µM
Cc1ccc(S(=O)(=O)NNC(=O)Nc2cccc(C(F)(F)F)c2)cc1 ... > 100 µM
CCC(=C(c1ccc(OCCN2CCCCC2)cc1)c1ccc(OCCN2CCCCC2)cc1)c1ccc(Cl)cc1 ... > 16.7 µM

Need TGI, item O=C(O)c1ccc(N(/C=C/C(=O)C(F)(F)F)Cc2ccc(Cl)cc2)cc1
> 100 µM

====

tested on: RPMI-8226 leukemia; experiment: NCI tumour cell line growth inhibition, 48 h
ATTRIBUTE_MEASURED: TGI

O=C(O)/C=C/c1ccc(O)c(O)c1 ... > 100 µM

Moving on to the next molecule.
Item O=c1c2ccccc2nc(-c2cccc([N+](=O)[O-])c2)n1O with RPMI-8226 leukemia - TGI?
> 33.7 µM

====

tested on: SW-620 colon; assay: NCI tumour cell line growth inhibition, 48 h
ATTRIBUTE_MEASURED: TGI

Need TGI, item CC(NCc1c(O)ccc2c(-c3ccccc3)cc(=O)oc12)C(=O)O (stereo not drawn)
> 100 µM

Same read-out for COc1ccc(-c2cc(N3CCN(c4ccc(Cl)cc4)CC3)c(C#N)c(=O)o2)cc1 ?
> 100 µM

Same read-out for O=C(NCc1cn(Cc2cccc(Oc3ccccc3)c2)nn1)c1cccnc1Nc1ccc(F)cc1 ?
> 100 µM

====

tested on: MDA-MB-231 breast; test: NCI tumour cell line growth inhibition, 48 h
ATTRIBUTE_MEASURED: TGI (µM)
Lab book: enter the figure in µM, no units written.

CC(C)(C)N(Cc1ccccc1)C(=O)/C=C\S(=O)c1ccccc1 (centres undefined) ... 11.8

Moving on to the next compound.
Need TGI, item CC(=O)c1ccc(Br)cc1NC1=CC(=O)c2ncccc2C1=O
10.8

====

Parameter: TGI. Scope: all listed entries.
system: 786-0 renal; test: NCI tumour cell line growth inhibition, 48 h

Worked cases, TGI given:
CC(C)=CCC[C@@H](C)[C@H]1CC[C@@]2(C)[C@@H]3CC[C@H]4C(C)(C)[C@@H](O)CC[C@@]45C[C@@]35CC[C@]12C ... > 61.6 µM
COc1cccc2c1C(=O)c1c(O)c3c(c(O)c1C2=O)C[C@@](O)(C(=O)CO)CC3OC1CC(N(C)CCOCC(OC(C)=O)OC(C)=O)C(O)C(C)O1 (stereo not given in full) ... > 0.01 µM
O=C1NC(=O)C(c2c[nH]c3ccccc23)=C1c1c[nH]c2ccccc12 ... > 25 µM

Need TGI, item C/C(=C\C(=O)O[C@H]1[C@@H]2[C@H](C)CC[C@H]2[C@]2(C)O[C@@]1(C1CCCCC1)C[C@H]2OC(=O)CO)c1ccccc1
10.6 µM

Same read-out for COc1cc2c(cc1OS(C)(=O)=O)N=C[C@@H]1CCCN1C2=O ?
> 100 µM

Same read-out for CC(C#N)(c1ccccc1)N(CCc1ccccc1)C(=O)Oc1ccccc1 (stereo not given) ?
> 100 µM

Same read-out for Nc1ccccc1N ?
> 100 µM

====

tested on: A549 NSCLC; assay: NCI tumour cell line growth inhibition, 48 h
ATTRIBUTE_MEASURED: TGI

Worked cases, TGI given:
COc1cc(CN=c2nc(N(C)C)ss2)cc(OC)c1OC ... > 10 µM
CC(=O)N1C=Cc2c(c(C)c3c([nH]c4ccccc43)c2C)C1 ... 24.2 µM
C/C(=N/NC(=O)c1ccccc1S(N)(=O)=O)C(CN1CCCCC1)C(C1=C(O)C2C=CC=CC2OC1=O)c1ccccc1 (stereo not drawn) ... > 100 µM

Need TGI, item Cc1ccc(-c2n[nH]c(=O)n2/N=C\c2ccccc2O)cc1
> 100 µM

Same read-out for COC(=NC(C)C)NC(C)C ?
> 100 µM

Same read-out for C#CCOC(=O)C(N)CC(N)=O (stereo not drawn) ?
> 100 µM

====

test system: SF-268 CNS; test: NCI tumour cell line growth inhibition, 48 h
ATTRIBUTE_MEASURED: TGI

Worked cases, TGI given:
CCN(CC)C(=O)CCn1ccc(=O)[nH]c1=O ... > 100 µM
CN1CCN(Cc2ccc(NC(=O)c3cncc(C#Cc4cnc(N)c5ncccc45)c3)cc2C(F)(F)F)CC1 ... 2.95 µM
COC(=O)[C@@H](C)C[C@H](Cc1ccccc1)NC(=O)c1nc([C@@H](C[C@H](C(C)C)N(C)C(=O)[C@@H](NC(=O)[C@H]2C[C@H](O)CCN2C)C(C)C)OC(C)=O)sc1C(C)C ... > 11.1 µM
Cc1ccc(S(=O)(=O)NNC(=O)Nc2cccc(C(F)(F)F)c2)cc1 ... > 100 µM

Item NC1=C(O)c2cccc3cccc(c23)C1=O with SF-268 CNS - TGI?
> 100 µM

Same read-out for O=C1CSC(c2c[nH]c3ccccc23)N1c1cccc(Cl)c1 (configuration not stated) ?
> 100 µM

Same read-out for CC(C)=CCC/C(C)=C/CC/C(C)=C/CSC[C@H](NC(=O)CCCCCN1CCN(C)CC1)C(=O)NC1CCCCCC1 ?
4.03 µM

====

system: NCI-H226 lung; experiment: NCI tumour cell line growth inhibition, 48 h
Parameter: TGI. Scope: all listed entries.

Need TGI, item CC1=C(CCCOC(=O)[C@H](N)CC(C)C)C2=C(C)C3(CC3)[C@@](C)(O)C(=O)C2=C1
6.95 µM

Same read-out for CCOC(=O)c1nc2ccccc2nc1Oc1cc(OC)cc(OC)c1 ?
> 100 µM

Same read-out for CCCc1nnc2sc(COc3ccc(OCc4nn5c(CCC)nnc5s4)c(Cl)c3)nn12 ?
> 100 µM

Same read-out for CN(C)CC1CC/C(=C\c2ccc(Cl)c(Cl)c2)C1=O (configuration not stated) ?
> 100 µM

Same read-out for COc1ccc2c(c1)/C(=C/c1c(O)[nH]c(=S)[nH]c1=O)C=N2 ?
> 100 µM

Same read-out for Cn1cc(C2NC(=O)c3ccccc3N2)c2ccccc21 (configuration not stated) ?
3.59 µM

Same read-out for CC1CCCCCC(=O)c2c(O)cc(O)cc2CC(=O)O1 (configuration not stated) ?
> 100 µM

Same read-out for C=CCOC(=O)Cn1cnc2c(N)ncnc21 ?
> 100 µM

Same read-out for CC(=O)c1ccc(Br)cc1NC1=CC(=O)c2ncccc2C1=O ?
15.5 µM

Same read-out for CN1C(=O)C(c2c[nH]c3ccccc23)=C(c2c[nH]c3ccccc23)C1=O ?
> 19.4 µM

Same read-out for CC(C)OC(=O)NCCn1cc(-c2ccccc2)nn1 ?
> 100 µM

Same read-out for Cc1ccc2c(c1C)C(=O)C1(C2)Cc2ccc3c(c2C1=O)CCC3 (configuration not stated) ?
> 100 µM

====

test system: HL-60(TB) leukemia; experiment: NCI tumour cell line growth inhibition, 48 h
ATTRIBUTE_MEASURED: TGI

Worked cases, TGI given:
CN1C2CCC1/C(=C/c1cccc3c1OCO3)C(=O)/C2=C\c1cccc2c1OCO2 ... > 100 µM
OCC(O)COCn1cc(Cn2ncc3c(SCc4ccccc4)ncnc32)nn1 (stereo not drawn) ... > 100 µM

Moving on to the next compound.
Need TGI, item Nc1c(C(=O)Nc2cccc(Cl)c2)sc2nc3c(cc12)C(=O)CCC3
> 100 µM

====

system: A549 NSCLC; assay: NCI tumour cell line growth inhibition, 48 h
ATTRIBUTE_MEASURED: TGI

Worked cases, TGI given:
N=c1sc2ccccc2n1CCS (tested in a mixture with another compound) ... 37.3 µM
CC(C)=CC[C@@H]1CC2(CC=C(C)C)C(=O)C(OC3(C(=O)c4ccccc4)C(=O)C4(CC=C(C)C)C[C@@H](CC=C(C)C)C(C)(C)C(CC=C(C)C)(C4=O)C3=O)(C(=O)c3ccccc3)C(=O)C(CC=C(C)C)(C2=O)C1(C)C (some centres not stated) ... 6.05 µM
Cn1ncnc1[C@@H]1c2n[nH]c(=O)c3cc(F)cc(c23)N[C@H]1c1ccc(F)cc1 ... > 100 µM
COC1=C(C(c2cc(OC)c(OC)c(OC)c2)c2cc3c(cc2OC)OCO3)C(=O)OC1 (configuration not stated) ... > 67.1 µM
COc1cc(/C=C2\CC3C4CC=C5CC(OC(C)=O)CC[C@]5(C)C4CC[C@]3(C)C2=O)ccc1OCCN1CCCC1 (some centres not stated) ... > 48.6 µM
CCNC1=C(NC(=O)c2ccc(F)cc2)C(=O)c2ccccc2C1=O ... > 100 µM

Moving on to the next compound.
Item COc1ccc2c(-c3csc(-c4c[nH]c5ccc(Br)cc45)n3)c[nH]c2c1 with A549 NSCLC - TGI?
> 100 µM

This collection of values is drawn from PubChem BioAssay (NCI).
